# study.system: T1, recombinant human SOST (rhSOST) (human, UniProt Q9BQB4 24-213)
# T1 construct: Treated as one molecule; also called recombinant human SOST protein; human sclerostin
# T1 sequence: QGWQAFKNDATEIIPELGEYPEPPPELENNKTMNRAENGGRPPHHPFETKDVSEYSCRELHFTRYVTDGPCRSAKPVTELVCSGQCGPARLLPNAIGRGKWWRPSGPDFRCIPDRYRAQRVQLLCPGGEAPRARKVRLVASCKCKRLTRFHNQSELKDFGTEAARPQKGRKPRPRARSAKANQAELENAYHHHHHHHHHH
# protocol.text: SPR Biacore T200, IgG captured via anti-human Fc, rhSOST analyte, 37 C
reported.property: log10 Kd (log10 of the value in nM)
Values below are the log10 of the recorded Kd, with nM as the unit.

Completed entries (count: 4):
// query log10 Kd value for entry DM33 (antibody, V domains shown, also called mH11/mL15) VH: EVQLLESGGGLVQPGGSLRLSCAASGFTFSDYWMQWVRQAPGKGLEWVGAIYPGDGDTRYNQKFKDRFTISRDNSKNTLYLQMNSLRAEDTAVYYCARSMDYWGQGTLVTVSS VL: DIVMTQSPDSLAVSLGERATINCRASKTVDSYGNSFMHWYQQKPGQPPKLLIYHSSNLESGVPDRFSGSGSGTDFTLTISSLQAEDVAVYYCLQTIEHPYTFGQGTKLEIK
-1.03

Would you mind doing DM5 (antibody, V domains shown, also called mH10/mL16) VH: EVQLLESGGGLVQPGGSLRLSCAASGHTFSDYWMQWVRQAPGKGLEWVGAIYPGDGDTRYNQKFKDRFTISRDNSKNTLYLQMNSLRAEDTAVYYCARSMDYWGQGTLVTVSS VL: DIVMTQSPDSLAVSLGERATINCRASKTVDSYGNSFMHWFQQKPGQPPKLLIYHSSNLESGVPDRFSGSGSGTDFTLTISSLQAEDVAVYYCLQTIEFPYTFGQGTKLEIK as well?
-0.71

Would you mind doing DM7 (antibody, V domains shown, also called mH11/mL14) VH: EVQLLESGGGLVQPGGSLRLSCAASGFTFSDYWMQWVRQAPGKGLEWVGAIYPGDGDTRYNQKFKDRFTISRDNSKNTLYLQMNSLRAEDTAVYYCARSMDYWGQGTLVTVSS VL: DIVMTQSPDSLAVSLGERATINCRASKTVDSYGNSFMHWFQQKPGQPPKLLIYHSSNLESGVPDRFSGSGSGTDFTLTISSLQAEDVAVYYCLQTIEHPYTFGQGTKLEIK as well?
-0.02

Would you mind doing DM25 (antibody, V domains shown, also called mH4/wt) VH: EVQLLESGGGLVQPGGSLRLSCAASGHTFTDYWMQWVRQAPGKGLEWVGAIYPGDGDTRYNQKFKDRFTISRDNSKNTLYLQMNSLRAEDTAVYYCARSMDYWGQGTLVTVSS VL: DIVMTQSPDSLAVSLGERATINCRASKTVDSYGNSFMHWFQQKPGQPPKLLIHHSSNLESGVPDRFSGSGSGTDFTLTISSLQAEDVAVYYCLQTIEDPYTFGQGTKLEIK as well?
-1.77

---
// query log10 Kd value for entry DM8 (antibody, V domains shown, also called mH11/mL17) VH: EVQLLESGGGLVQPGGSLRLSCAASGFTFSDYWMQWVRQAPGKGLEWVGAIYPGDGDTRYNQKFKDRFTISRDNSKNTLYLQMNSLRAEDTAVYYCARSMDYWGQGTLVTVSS VL: DIVMTQSPDSLAVSLGERATINCRASKTVDSYGNSFMHWYQQKPGQPPKLLIYHSSNLESGVPDRFSGSGSGTDFTLTISSLQAEDVAVYYCLQTIEFPYTFGQGTKLEIK
0.47
